Assay: GFP drop in mixed WT/humanized-ribosome E. coli culture – GFP/RFP fluorescence, OD600, single point, bacterial rRNA inhibitor project, primary screen (AID 720706)
Settings: E. coli WT GFP vs humanized-ribosome RFP mutants, 24 h; stronger effect = lower value, DMSO median 0, no signal -100
Among all 350,000 compounds or so, about 5,500 (1.6%) were called active. The list comes from a sample in which actives are over-represented; it also holds close analogues and randomly drawn compounds.
Parameter: GFP signal change (wild-type ribosome). Scope: all listed entries.
result.type: GFP signal change (wild-type ribosome) (%)

INSERT INTO assay_data (compound, measurement) VALUES
  ('COc1cccc(/C=C/C(=O)Nc2ccc3c(c2)OCCO3)c1', -29.5),
  ('CN1C(=O)c2cc(NC(=O)c3ccc(Cl)cc3)ccc2OC[C@H]2O[C@H](CC(=O)O)CC[C@H]21', 1.69),
  ('COCCNC(=O)C[C@@H]1C[C@@H]2c3cc(NS(=O)(=O)c4ccccc4)ccc3O[C@@H]2[C@H](CO)O1', 1.27),
  ('C[C@H](CO)N1C[C@H](C)[C@H](CN(C)C(=O)C2CC2)Oc2ncc(C#Cc3ccccc3)cc2C1=O', -0.859),
  ('C[C@@H](NC(=O)C[C@@H]1CC[C@H](NC(=O)Cc2ccccn2)[C@H](CO)O1)c1ccccc1', 1.1),
  ('O=C(Nc1nnc(Cc2ccc(Cl)cc2)s1)c1cccnc1', -2.18),
  ('Cc1ccc(NNC(=O)c2c(F)cccc2Cl)cc1Cl', -32.7),
  ('CC[C@H]1CC=CC[C@@H](C)Oc2ccccc2C(=O)N(C)[C@H](Cc2ccccc2)C(=O)N1 (mixture of isomers)', -6.4),
  ('COc1cnc(-c2ccccn2)nc1Oc1ccc(C(C)(C)C)cc1', -55.5),
  ('COc1ccc2c3c(n(C)c2c1)[C@@H](CO)N(C(=O)Nc1ccccc1F)CC31CCN(C(=O)c2ccccc2F)CC1', -2.62),
  ('C[C@H]1CN(C)C(=O)c2cc(N(C)C)ccc2O[C@H]1CN(C)C(=O)OC(C)(C)C', -3.1),
  ('CCOCCCNC(=O)C1(O)c2cc(Br)ccc2NC(=O)N1c1ccc(C)c(C)c1 (configuration not stated)', 4.8),
  ('CCCOc1ccc(NC(=O)CC2C(=O)N(C)C(=S)N2Cc2ccc3c(c2)OCO3)cc1 (configuration not stated)', -21.2),
  ('COc1cccc(C(=O)NNC(=O)/C=C/c2ccccc2)c1', 6.18),
  ('Cc1coc2cc3oc(=O)c(CCC(=O)O)c(C)c3cc12', -8.99),
  ('OCCN(Cc1ccccc1)Cc1ccc(Cl)cc1', -23),
  ('Cc1ccccc1OCCC(=O)OCC(=O)NC(C)c1ccccc1 (configuration not stated)', -11.5),
  ('Cc1ccccc1-c1ccc([C@H]2[C@H](CO)N3C(=O)CN(C(=O)c4cccnc4)C[C@@H]23)cc1', -0.83),
  ('COc1ccc(CNC(=O)C2CCN(C(=O)c3ccco3)CC2)cc1', -1.02),
  ('COC(=O)c1c(C)cc(O)c(C)c1O', -0.355),
  ('O=S1(=O)c2ccc(Br)cc2-n2nncc2CN1Cc1cccc(Cl)c1', -5.88),
  ('CCOc1ccc(NC(=O)CC2C(=O)N(c3ccccc3)C(=O)N2CCOC)cc1 (configuration not stated)', -0.19),
  ('C[C@@H]1CCCCO[C@@H](CN(C)C(=O)c2ccccc2)[C@H](C)CN([C@@H](C)CO)C(=O)c2cc(NS(=O)(=O)c3cn(C)cn3)ccc2O1', 4.03),
  ('CCC(CC)c1nnc(NC(=O)C2CCN(C(=O)c3ccco3)CC2)s1', -22.2),
  ('Cc1ccc(O)c(NC(=S)NC(=O)COc2ccc(Br)cc2)c1', -23.6),
  ('COc1ccc2c3c(n(C)c2c1)[C@H](CO)N(Cc1cccnc1)CC31CCN(Cc2cccnc2)CC1', -3.41),
  ('CC(=O)Nc1ccc(OC(=O)COc2ccc(Br)cc2)cc1', 18.1),
  ('CC(C)n1c(=S)[nH]c2cc(C(F)(F)F)ccc21', -0.904),
  ('COc1ccc(Cl)cc1NC(=O)C(C)N1CCc2ccccc21 (configuration not stated)', -31),
  ('Cc1c(CCC(=O)O)c(=O)oc2cc3occ(-c4ccccc4)c3cc12', -41.8),
  ('COc1ccc(-c2cc(=O)oc3cc(OC(C)C(=O)Nc4ccc(CN5CCOCC5)cc4)ccc23)cc1 (configuration not stated)', -20),
  ('O=C(NNc1cc(Cl)cc(Cl)c1)c1c(F)cccc1Cl', -4.44),
  ('COC(=O)c1c(-c2ccc(C)cc2)csc1N', -1.07),
  ('O=C(Cc1ccc(Cl)cc1)c1ccccc1', 3.35),
  ('C[C@@H]1CN([C@@H](C)CO)C(=O)c2cc(NC(=O)CCCN(C)C)ccc2O[C@@H](C)CCCCO[C@H]1CN(C)C(=O)Nc1cccc2ccccc12', -3.48),
  ('COC(=O)CSc1nnc(NC(=O)CCc2ccccc2)s1', 7.96),
  ('Brc1ccc2c(c1)[C@H]1OCC[C@H]1[C@@H](c1cccs1)N2', -43.8),
  ('COc1cccc(-c2coc3cc4oc(=O)c(CC(=O)O)c(C)c4cc23)c1', -25.9),
  ('O=C(Nc1nnc(Cc2ccc(Cl)cc2)s1)c1ccncc1', -25.9),
  ('Cc1ccc(OCCCC(=O)NC(C)c2ccccc2)c(C)c1 (configuration not stated)', -20.1),
  ('COc1ccc(C)cc1N(CC(=O)NC(C)c1ccccc1)S(C)(=O)=O (configuration not stated)', 7.63),
  ('S=C(Nc1ccc(Cl)cc1Cl)N1CCCC1', -29.6);

---

Test: GFP drop in mixed WT/humanized-ribosome E. coli culture – GFP/RFP fluorescence, OD600, single point, bacterial rRNA inhibitor project, primary screen (AID 720706)
Settings: E. coli WT GFP vs humanized-ribosome RFP mutants, 24 h, DMSO median 0, no signal -100
The campaign covered roughly 350,000 compounds. About 5,500 (1.6%) were called active.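 The calls were made as follows: active = significant combined selectivity score with lowered wild-type GFP, culture density cut under 30%, mutant RFP and density less affected; inactive = any of these conditions unmet.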 The list comes from a sample in which actives are over-represented; it also holds close analogues and randomly drawn compounds.
Classes used: active, inactive

INSERT INTO results (molecule, classification) VALUES
  ('COc1ccc(NS(=O)(=O)c2cccc(C(=O)NCCc3ccc(S(N)(=O)=O)cc3)c2)cc1', 'inactive'),
  ('COc1ccc(NC(=O)Nc2ccc3c(c2)C(=O)N([C@H](C)CO)C[C@@H](C)[C@H](CN(C)CC2CCCCC2)OCCCC[C@@H](C)O3)cc1', 'inactive'),
  ('CC1CCN(C(=S)NC(=O)c2ccccc2Br)CC1', 'inactive'),
  ('O=C(C[C@H]1C[C@H]2c3cc(NC(=O)Nc4ccc(C(F)(F)F)cc4)ccc3O[C@H]2[C@@H](CO)O1)NCc1cccnc1', 'inactive'),
  ('COc1ccc(-c2ccc3c(c2)C2CC3CCN2CCC#N)cc1 (centres undefined)', 'active'),
  ('OC[C@@H]1CN(Cc2ccc(F)cc2)C[C@H](n2cnc3c(NC4CCCC4)ncnc32)O1', 'inactive'),
  ('CN(C(=O)CN1C(=O)/C(=C/c2ccc(Cl)cc2)SC1=S)C1CCS(=O)(=O)C1 (centres undefined)', 'inactive'),
  ('OC[C@@H]1CN(Cc2ccc(-c3ccccc3)cc2)C[C@H](n2cnc3c(NC4CCCC4)ncnc32)O1', 'active'),
  ('OC[C@@H]1CN(Cc2cccs2)C[C@H](n2cnc3c(NC4CCCC4)ncnc32)O1', 'inactive');

---

Assay: GFP drop in mixed WT/humanized-ribosome E. coli culture – GFP/RFP fluorescence, OD600, single point, bacterial rRNA inhibitor project, primary screen (AID 720706)
Conditions: E. coli WT GFP vs humanized-ribosome RFP mutants, 24 h; stronger effect = lower value, DMSO median 0, no signal -100
In all, about 350,000 compounds went through this assay and about 5,500 (1.6%) were called active. This is one part of a sample in which actives are shown more often than they occur.
result.type: GFP signal change (wild-type ribosome) (%)

INSERT INTO measurements (molecule, units_of_measure, measurement) VALUES
  ('S=c1nc2ccccc2c2nc(-c3cccnc3)[nH]n12', '%', -0.36),
  ('C[C@H]1CCCCO[C@H](CN(C)S(=O)(=O)c2ccc(Cl)cc2)[C@@H](C)CN([C@@H](C)CO)C(=O)c2cc(NC(=O)Nc3ccc4c(c3)OCO4)ccc2O1', '%', 2.33),
  ('COc1ccccc1Oc1nc(-c2cccnc2)nc2ccccc12', '%', -34.3),
  ('CO[C@@H]1CN(C)C(=O)c2cc(NC(=O)NC3CCCCC3)ccc2OC[C@@H](C)N(C(C)=O)C[C@H]1C', '%', 1.07),
  ('O=C(C[C@@H]1C[C@@H]2c3cc(NC(=O)c4ccc5c(c4)OCO5)ccc3O[C@@H]2[C@H](CO)O1)NCC1CC1', '%', -0.47),
  ('COc1cccc(OC)c1C(=O)NC(=S)NCc1ccco1', '%', 10.3),
  ('C[C@H]1CCCCO[C@H](CN(C)CC2CCCCC2)[C@@H](C)CN([C@@H](C)CO)C(=O)c2cc(NS(=O)(=O)c3ccc(Cl)cc3)ccc2O1', '%', -56.3),
  ('COc1ccc2oc(C(=O)NCC(Cc3ccccc3)N(C)C)c(C)c2c1 (stereo not drawn)', '%', 0.609);
